Biological target: T1, 4H591-bN
T1 chain: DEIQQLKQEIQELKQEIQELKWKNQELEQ
Assay: two-hybrid library CCNG1;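 further: natural log of median RNA to DNA barcode read ratio; higher means stronger binding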
The following binders are shown together with reported interaction score values.
Just the number, please, no unit after it.

Would you please look over these solved cases?
DKNQQLEQENQELKQEIQELKWKIQELEQ [4H3277-bN] : -1.66
DKNQQLEQEIQELKQENQELKWEIQELKQ [4H3162-bN] : -1.33

Which interaction score reading was recorded for the binder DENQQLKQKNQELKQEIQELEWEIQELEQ [4H1985-bN] ?
-0.871

Now the binder DKNQQLKQKIQELKQENQELEWKIQELKQ [4H3926-bN]
0.172

And what about the binder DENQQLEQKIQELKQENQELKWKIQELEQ [4H1373-bN] ?
-0.619

Recorded values, source paper PMC10397247.
